Below, each entry is listed with its recorded IC50.
study.system: BRM (Homo sapiens)
Construct: made in house; host or cells: High Five insect cells
Sequence (P51531 whole entry): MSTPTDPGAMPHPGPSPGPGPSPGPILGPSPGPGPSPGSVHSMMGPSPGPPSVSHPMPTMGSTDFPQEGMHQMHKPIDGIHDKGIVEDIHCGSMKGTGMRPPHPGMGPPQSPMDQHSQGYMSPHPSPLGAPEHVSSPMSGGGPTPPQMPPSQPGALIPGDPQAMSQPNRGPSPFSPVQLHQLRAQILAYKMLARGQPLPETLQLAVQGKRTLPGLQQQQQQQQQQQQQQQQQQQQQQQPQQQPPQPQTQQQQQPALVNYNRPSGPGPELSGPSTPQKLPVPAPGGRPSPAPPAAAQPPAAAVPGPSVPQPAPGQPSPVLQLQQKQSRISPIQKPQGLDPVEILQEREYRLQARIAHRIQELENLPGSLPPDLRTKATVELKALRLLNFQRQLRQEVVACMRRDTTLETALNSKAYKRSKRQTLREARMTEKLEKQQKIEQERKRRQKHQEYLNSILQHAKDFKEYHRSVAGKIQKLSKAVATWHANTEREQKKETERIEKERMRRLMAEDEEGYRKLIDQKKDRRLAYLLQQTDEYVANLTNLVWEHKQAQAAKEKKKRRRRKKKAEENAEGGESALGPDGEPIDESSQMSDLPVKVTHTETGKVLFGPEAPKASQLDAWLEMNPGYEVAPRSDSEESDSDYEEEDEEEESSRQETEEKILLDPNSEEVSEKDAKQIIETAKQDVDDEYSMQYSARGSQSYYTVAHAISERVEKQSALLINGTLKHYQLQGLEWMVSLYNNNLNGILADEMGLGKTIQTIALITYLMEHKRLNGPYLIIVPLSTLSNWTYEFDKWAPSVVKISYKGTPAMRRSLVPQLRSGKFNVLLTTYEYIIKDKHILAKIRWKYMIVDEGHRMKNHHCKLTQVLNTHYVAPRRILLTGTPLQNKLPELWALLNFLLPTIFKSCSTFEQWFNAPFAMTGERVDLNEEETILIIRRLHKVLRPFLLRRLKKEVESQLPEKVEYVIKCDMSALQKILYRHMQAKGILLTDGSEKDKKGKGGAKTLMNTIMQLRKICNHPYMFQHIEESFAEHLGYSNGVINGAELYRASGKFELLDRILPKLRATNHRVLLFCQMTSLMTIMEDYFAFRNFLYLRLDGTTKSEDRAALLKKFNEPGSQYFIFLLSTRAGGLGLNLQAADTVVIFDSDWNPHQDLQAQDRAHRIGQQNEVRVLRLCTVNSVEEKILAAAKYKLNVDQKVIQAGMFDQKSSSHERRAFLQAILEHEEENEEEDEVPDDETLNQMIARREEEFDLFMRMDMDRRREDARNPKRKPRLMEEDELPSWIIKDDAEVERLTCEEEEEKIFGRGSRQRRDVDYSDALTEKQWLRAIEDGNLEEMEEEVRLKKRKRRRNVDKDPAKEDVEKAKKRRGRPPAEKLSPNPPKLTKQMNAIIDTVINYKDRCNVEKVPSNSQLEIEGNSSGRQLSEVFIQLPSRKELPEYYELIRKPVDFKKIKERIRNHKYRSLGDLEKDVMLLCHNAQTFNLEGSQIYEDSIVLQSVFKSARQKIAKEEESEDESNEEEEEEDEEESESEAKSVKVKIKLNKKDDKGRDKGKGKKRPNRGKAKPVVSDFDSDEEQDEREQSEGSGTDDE
test.description: ATPase catalytic activity of BRM, ADP-Glo in vitro biochemical assay
run.conditions: ATPase catalytic activity, ADP-Glo; 30 nM BRM, 400 μM ATP
quantity.name: IC50 (nM)

>  <molecule>
CC1CN(c2ccc3cnc(CNC(=O)c4ccc5c(c4)S(=O)(=O)CCOC5)cc3n2)c2ncccc2N1C (centres unmarked)

>  <study.system>
BRM (Homo sapiens)

>  <unit.of.measure>
nM

>  <assay.result>
126

$$$$
>  <molecule>
COC1CCN(c2ccc3cnc(CNC(=O)c4ccc5c(c4)S(=O)(=O)CCOC5)cc3n2)c2ncccc21 (centres unmarked)

>  <study.system>
BRM (Homo sapiens)

>  <unit.of.measure>
nM

>  <assay.result>
157

$$$$
>  <molecule>
COc1cccc(-c2ccc3cnc(CNC(=O)c4ccc5c(c4)S(=O)(=O)CCOC5)cc3n2)n1

>  <study.system>
BRM (Homo sapiens)

>  <unit.of.measure>
nM

>  <assay.result>
21.9

$$$$
>  <molecule>
C[C@H]1COCc2ccc(C(=O)NCc3cc4nc(-c5cccc(C6CC6)n5)cnc4cn3)cc2S1(=O)=O

>  <study.system>
BRM (Homo sapiens)

>  <unit.of.measure>
nM

>  <assay.result>
34.7

$$$$
>  <molecule>
Cc1cnc2c(c1)OCCN2c1ccc2cnc(CNC(=O)c3cc(F)c4c(c3)S(=O)(=O)[C@@H](C)COC4)cc2n1

>  <study.system>
BRM (Homo sapiens)

>  <unit.of.measure>
nM

>  <assay.result>
8.6

$$$$
>  <molecule>
C[C@@H]1CN(c2cccc(-c3ccc4cnc(CNC(=O)c5ccc6c(c5)S(=O)(=O)CC[C@@H](C(F)F)O6)cc4n3)n2)C[C@H](C)O1

>  <study.system>
BRM (Homo sapiens)

>  <unit.of.measure>
nM

>  <assay.result>
155

$$$$
>  <molecule>
COc1cc(C(C)(F)F)ccc1-c1ccc2cnc(CNC(=O)c3ccc4c(c3)S(=O)(=O)CCOC4)cc2n1

>  <study.system>
BRM (Homo sapiens)

>  <unit.of.measure>
nM

>  <assay.result>
24.5

$$$$
>  <molecule>
O=C(NCc1cc2nc(-c3ccc4c(n3)OCCC4)ccc2cn1)c1ccc2c(c1)S(=O)(=O)CCOC2

>  <study.system>
BRM (Homo sapiens)

>  <unit.of.measure>
nM

>  <assay.result>
290

$$$$
>  <molecule>
O=C(NCc1cc2nc(-n3cccc(N4CCOCC4)c3=O)ccc2cn1)c1ccc2c(c1)S(=O)(=O)CCOC2

>  <study.system>
BRM (Homo sapiens)

>  <unit.of.measure>
nM

>  <assay.result>
1320

$$$$
>  <molecule>
COC[C@H]1C[C@H]1N(C)c1cccc(-c2ccc3cnc(CNC(=O)c4ccc5c(c4)S(=O)(=O)CCOC5)cc3n2)n1

>  <study.system>
BRM (Homo sapiens)

>  <unit.of.measure>
nM

>  <assay.result>
76.5

$$$$
>  <molecule>
COc1ccc2c(n1)N(c1ccc3cnc(CNC(=O)c4ccc5c(c4)S(=O)(=O)CCOC5)cc3n1)CCC2

>  <study.system>
BRM (Homo sapiens)

>  <unit.of.measure>
nM

>  <assay.result>
106

$$$$
>  <molecule>
CC(F)(F)CN1CCOc2c(-c3ccc4cnc(CNC(=O)c5ccc6c(c5)S(=O)(=O)CCOC6)cc4n3)cccc21

>  <study.system>
BRM (Homo sapiens)

>  <unit.of.measure>
nM

>  <assay.result>
48.3

$$$$
>  <molecule>
CS(=O)(=O)c1cc(C(=O)NCc2cc3nc(-c4cn([C@H]5C[C@H](F)C5)nc4OC(F)F)ccc3cn2)ccc1C(F)F

>  <study.system>
BRM (Homo sapiens)

>  <unit.of.measure>
nM

>  <assay.result>
74.3

$$$$
>  <molecule>
C[C@H](C1COC1)N(C)c1cccc(-c2ccc3cnc(CNC(=O)c4ccc5c(c4)S(=O)(=O)CCOC5)cc3n2)n1

>  <study.system>
BRM (Homo sapiens)

>  <unit.of.measure>
nM

>  <assay.result>
74.8

$$$$
